Where do these numbers come from? They come from patent US11045745B2.

experiment: Ketone hydration to diol equilibrium constant by room temperature NMR (Technique 1); format: physicochemical; conditions: d6-DMSO/H2O (1/1, mol/mol); 19F NMR
Below: a set of entries, each annotated with reported KH,app at 20 ± ° C. (19F).
observation_type: KH,app at 20 ± ° C. (19F)

>>> print(df.to_string())
                                   compound           observation_type  observed_value
0  CC(F)(F)C(=O)c1ccccc1 [Example 2-2, 2,2-difluoro-1-phenyl-1-propanone]  KH,app at 20 ± ° C. (19F)             3.3
1   COc1ccc(C(=O)C(F)(F)F)cc1 [Example 2-3]  KH,app at 20 ± ° C. (19F)              23

###

assay: Ketone hydration equilibrium and thermodynamic parameters by variable temperature NMR (Technique 2), van't Hoff fit; type: physicochemical; details: D2O/H2O (5/95, v/v); van't Hoff fit
observation_type: ΔG °

                         compound           observed_value
0     CC(=O)C(C)=O [Example 2-10]  -0.526 ± 0.359 kcal/mol
1         O=C(CF)CF [Example 2-9]    -1.94 ± 0.24 kcal/mol
2    CCC(=O)C(C)=O [Example 2-11]   -0.263 ± 0.12 kcal/mol
3  CC(=O)C(C)(C)C#N [Example 2-6]     1.63 ± 0.48 kcal/mol

###

assay: Ketone hydration equilibrium and thermodynamic parameters by variable temperature NMR (Technique 2), van't Hoff fit; type: physicochemical; settings: D2O/H2O (5/95, v/v); van't Hoff fit
observation_type: ΔH ° (kcal/mol)

In [3]: df
Out[3]:
   structure_smiles_string  observed_value
0         CC(=O)C(C)(C)C#N           -5.86
1             CC(=O)C(C)=O           -5.98
2                O=C(CF)CF            -7.5
3            CCC(=O)C(C)=O           -5.47

###

assay: Ketone hydration equilibrium and thermodynamic parameters by variable temperature NMR (Technique 2), van't Hoff fit; format: physicochemical; settings: D2O/H2O (5/95, v/v); van't Hoff fit
# reported −TΔS °; entries follow
observation_type: −TΔS ° (kcal/mol)

In [3]: df
Out[3]:
                         compound  unit_info  observed_value
0         O=C(CF)CF [Example 2-9]   kcal/mol            5.57
1  CC(=O)C(C)(C)C#N [Example 2-6]   kcal/mol            7.48
2     CC(=O)C(C)=O [Example 2-10]   kcal/mol            5.45
3    CCC(=O)C(C)=O [Example 2-11]   kcal/mol            5.21

###

assay: Ketone hydration equilibrium and thermodynamic parameters by variable temperature NMR (Technique 2), van't Hoff fit; format: physicochemical; settings: D2O/H2O (5/95, v/v)
Overview of reported KH at 25° C. across a group of compounds:
observation_type: KH at 25° C.

>>> print(df.to_string())
   structure_smiles_string  observed_value
0         CC(=O)C(C)(C)C#N           0.063
1            CCC(=O)C(C)=O             1.5
2             CC(=O)C(C)=O             2.5
3                O=C(CF)CF              27
